System: L1210
Assay: Toxic dose against L1210 mouse leukemia cells was determined
Format: toxicity
Recorded Toxic dose values for a group of compounds are listed next.
PROPERTY_LABEL: Toxic dose (mg/kg)

>>> meas_value("CCC1(O)C(=O)OCc2c1cc1n(c2=O)Cc2cc3cc([N+](=O)[O-])ccc3nc2-1 (centres undefined)")
31
>>> meas_value("CCC1(O)C(=O)OCc2c1cc1n(c2=O)Cc2cc3cc(Cl)ccc3nc2-1 (centres undefined)")
40
>>> meas_value("CCC1(O)C(=O)OCc2c1cc1n(c2=O)Cc2cc3cc(N)ccc3nc2-1 (centres undefined)")
32
>>> meas_value("CC[C@@]1(O)C(=O)OCc2c1cc1n(c2=O)Cc2cc3c(N)cccc3nc2-1 [9-AMINOCAMPTOTHECIN]")
10

###

Tested on: L1210
Experiment: Toxic dose against L1210 mouse leukemia cells was determined
Type: toxicity
PROPERTY_LABEL: Toxic dose

>>> meas_value("CCC1(O)C(=O)OCc2c1cc1n(c2=O)Cc2cc3cc(C)ccc3nc2-1 (stereo not given)")
"> 80 mg/kg"
>>> meas_value("CCC1(O)C(=O)OCc2c1cc1n(c2=O)Cc2cc3ccc(N)cc3nc2-1 (stereo not given)")
"> 80 mg/kg"
>>> meas_value("Br.CCC1(O)C(=O)OCc2c1cc1n(c2=O)Cc2cc3cc(O)c(O)cc3nc2-1 (stereo not given)")
"> 80 mg/kg"
>>> meas_value("CCC1(O)C(=O)OCc2c1cc1n(c2=O)Cc2cc3cc4c(cc3nc2-1)OCO4 (stereo not given)")
"> 8 mg/kg"
>>> meas_value("CCC1(O)C(=O)OCc2c1cc1n(c2=O)Cc2cc3ccc(C)cc3nc2-1 (stereo not given)")
"> 80 mg/kg"

Measured values drawn from ChEMBL document CHEMBL1123875 for this set.
